# ED50 annotations
tested on: compound 48/80-induced lethality; test: Protection of rats from compound 48/80-induced lethality; type: in vivo, rats of an inbred Wistar strain; settings: Rattus norvegicus, 4 h, read-out: Compound 48/80 lethality test in rats ED50, s.c. or p.o. 1 h before compound 48/80 0.5 mg/kg i.v.; protection of 50% of animals, survival after 4 hours
Quick reminder: number only, in mg/kg, skip the unit.

Solved cases (6 shown):
Fc1ccc(Cn2c(CC3CCN(CCNc4ccc(Cl)nn4)CC3)nc3ccccc32)cc1; 0.04
COc1ncccc1C(=O)NCCN1CCC(Cc2nc3ccccc3n2Cc2ccc(F)cc2)CC1; 0.08
C=CCN1CCC(Cc2nc3ccccc3n2Cc2ccc(F)cc2)CC1; 0.04
Cc1nc(CCN2CCC(Cc3nc4ccccc4n3Cc3ccc(F)cc3)CC2)cs1; 0.02
CC(C)NC(=O)CN1CCC(Cc2nc3cccnc3n2Cc2ccc(F)cc2)CC1; 0.16
Fc1ccc(Cn2c(OC3CCN(CCNc4nccs4)CC3)nc3ccccc32)cc1; 0.08

// below: ED50 requested for another compound
Challenge: For the compound `c1csc(Cn2c(CC3CCN(CCNc4nc5cnccc5[nH]4)CC3)nc3ccccc32)c1` , what ED50 is on record?
Response given: 0.04

====

# log10 ED50 annotations
Test system: compound 48/80-induced lethality
Assay: Protection of rats from compound 48/80-induced lethality
Assay type: in vivo, rats of an inbred Wistar strain
Settings: Rattus norvegicus, 4 h, read-out: Compound 48/80 lethality test in rats ED50, s.c. or p.o. 1 h before compound 48/80 0.5 mg/kg i.v.; protection of 50% of animals, survival after 4 hours
Method: Protection of rats from compound 48/80-induced lethality The protection from compound 48/80-induced lethal circulatory collapse appears to be a simple way of evaluating quantitatively the antihistaminic activity of test compounds. Male rats of an inbred Wistar strain, weighing 240-260 g were used in the experiment. After overnight starvation the rats were transferred to conditioned laboratories (temp.=21±1° C., relative humidity=65+5%). […]
Hello, just confirming the data are log10 of ED50 with units of mg/kg.

Solved cases (3 shown):
CN1CCC(Sc2nc3ccccc3n2Cc2ccc(F)cc2)CC1 [Compound 96]; -1.40
Fc1ccc(Cn2c(CC3CCNCC3)nc3cccnc32)cc1 [Compound 45]; -1.40
COc1ccc(CCN2CCC(Cc3nc4ccccc4n3Cc3ccsc3)CC2)cc1 [Compound 523]; -1.40

Challenge: Checklist item: log10 ED50 tested on compound 48/80-induced lethality, entry O=c1[nH]c2ccccc2c(=O)n1CCN1CCC(Cc2nc3ccccc3n2Cc2ccco2)CC1 [Compound 208] , value?
Response given: -1.40

Challenge: Checklist item: log10 ED50 tested on compound 48/80-induced lethality, entry Fc1ccc(Cn2c(CC3CCN(CCNc4nc5cnccc5s4)CC3)nc3ccccc32)cc1 [Compound 332] , value?
Response given: -1.10

Challenge: Checklist item: log10 ED50 tested on compound 48/80-induced lethality, entry c1cnc(NCCN2CCC(Cc3nc4ccccc4n3Cc3cccs3)CC2)nc1 [Compound 336] , value?
Response given: -2.00

Challenge: Checklist item: log10 ED50 tested on compound 48/80-induced lethality, entry COc1ccc(CCN2CCC(Cc3nc4cccnc4n3Cc3ccccn3)CC2)cc1 [Compound 234] , value?
Response given: -1.70

Challenge: Checklist item: log10 ED50 tested on compound 48/80-induced lethality, entry Cc1nc2n(c(=O)c1CCN1CCC(Cc3nc4ccccc4n3Cc3cccs3)CC1)CCCC2 [Compound 263] , value?
Response given: -1.40

Challenge: Checklist item: log10 ED50 tested on compound 48/80-induced lethality, entry Oc1ccc(CCN2CCC(Cc3nc4ccc(O)cc4n3Cc3ccc(F)cc3)CC2)cc1 [Compound 505] , value?
Response given: -1.40

Challenge: Checklist item: log10 ED50 tested on compound 48/80-induced lethality, entry c1cnc(NCCN2CCC(Cc3nc4cccnc4n3Cc3ccco3)CC2)nc1 [Compound 339] , value?
Response given: -2.00

Challenge: Checklist item: log10 ED50 tested on compound 48/80-induced lethality, entry CN1CCC(Cc2nc3ccccc3n2Cc2ccccc2)CC1 [Compound 93] , value?
Response given: -1.40

Challenge: Checklist item: log10 ED50 tested on compound 48/80-induced lethality, entry CN1CCC(Cc2nc3ccccc3n2Cc2ccc(F)cc2)CC1 [Compound 82] , value?
Response given: -2.30

Challenge: Checklist item: log10 ED50 tested on compound 48/80-induced lethality, entry Fc1ccc(Cn2c(CC3CCN(CCNc4cnccn4)CC3)nc3ccncc32)cc1 [Compound 373] , value?
Response given: -1.10
